These measurements were taken from patent US11649460B2.

Collected TGI: Concentration for total inhibition of cell growth values appear next to each entry.
Tested on: MCF-7 human breast adenocarcinoma cell line
Protocol description: SRB cell proliferation (cytotoxicity) assay, MCF-7
Assay context: MCF-7
Write the value in µM as a bare number.

AGCTGACACAGCAGGTTGGTGCGCCCAATACAGGCGCAGTATCTGTCCGTGGGCCGGGTAAAAGTTACGGACCGAGTCGAGCAATCTCGAAAT (nucleic acid, chemistry not given here) DNA: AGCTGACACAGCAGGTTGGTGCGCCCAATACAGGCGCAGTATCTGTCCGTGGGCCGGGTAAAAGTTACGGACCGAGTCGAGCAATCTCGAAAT ... 48.434
AGCTGACACAGCAGGTTGGTGCCAACAAGAAAAGAAACCGTTACAGAAGACACTACAGAATAAGTGAAAAGCCGAGTCGAGCAATCTCGAAAT (nucleic acid, chemistry not given here) DNA: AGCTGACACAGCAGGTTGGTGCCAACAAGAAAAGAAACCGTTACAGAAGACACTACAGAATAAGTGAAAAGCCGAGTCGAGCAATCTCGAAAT ... 70.609

// TGI: Concentration for total inhibition of cell growth lookup, molecule = AGCTGACACAGCAGGTTGGTGCCCAAAAGAGCCAATCCACGACGACACCCCAAAAACCATATCACGAATACCCGAGTCGAGCAATCTCGAAAT (nucleic acid, chemistry not given here) DNA: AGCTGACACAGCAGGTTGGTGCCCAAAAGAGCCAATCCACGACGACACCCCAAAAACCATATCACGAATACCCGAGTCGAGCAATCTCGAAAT , result: 80.767
